- System: primary human hepatic stellate cells (donor 1)
- experiment_summary: scaled lipid accumulation score (0 = DMSO-like, 1 = nortriptyline-like); higher = stronger HSC inactivation (lipid re-accumulation), active = hit call of the paper
- condition_label: library stock concentration: 10 mM; 48 h
Screen size: about 5,800 compounds; about 620 (11%) showed activity. This excerpt belongs to a sample that is enriched for actives.
quantity_kind: scaled lipid accumulation score

Challenge: Reported scaled lipid accumulation score for COc1cc2c(cc1OC)-c1[nH]nc(Nc3cccc(F)c3)c1C2 : what is it?
Response given: 0.232 (inactive)

Challenge: Reported scaled lipid accumulation score for CC(=Cc1ccc(C(=O)O)cc1)c1ccc2c(c1)C(C)(C)CCC2(C)C : what is it?
Response given: ≤ 0 (inactive)

Challenge: Reported scaled lipid accumulation score for Cc1cc(Nc2cc(N3CCN(C)CC3)nc(/C=C/c3ccccc3)n2)n[nH]1 : what is it?
Response given: 0.603 (inactive)

Challenge: Reported scaled lipid accumulation score for Cc1cc(Nc2cc(N3CCN(C)CC3)nc(Sc3ccc(NC(=O)C4CC4)cc3)n2)n[nH]1 [VX-680 (Tozasertib, MK-0457)] : what is it?
Response given: 0.038 (inactive)

Challenge: Reported scaled lipid accumulation score for Cc1cc(Nc2cc(N3CCN(C)CC3)nc(Sc3ccc(NC(=O)C4CC4)cc3)n2)n[nH]1 [Tozasertib (VX-680, MK-0457) (10 mM)] : what is it?
Response given: 0.456 (inactive)
